- Study target: PIM2 (human)
- Assay procedure: KINOMEscan competition binding
- Recorded conditions: compound 10.0 µM
# kinase still bound, per cent of control per record follows
Measured endpoint: kinase still bound, per cent of control (%)

- Compound: "CCCS(=O)(=O)Nc1ccc(F)c(C(=O)c2c[nH]c3ncc(Cl)cc23)c1F"
  Study target: "PIM2 (human)"
  Measured endpoint: "kinase still bound, per cent of control"
  Data value: 80
- Compound: "COc1ccc(N(C(=O)Oc2cc(C(=O)Nc3cccc(C(F)(F)F)c3)ccc2C)c2ccnc(Nc3ccc(N4CCN(C)CC4)cc3)n2)c(OC)c1"
  Study target: "PIM2 (human)"
  Measured endpoint: "kinase still bound, per cent of control"
  Data value: 100
- Compound: "CCN1CCN(Cc2ccc(NC(=O)c3ccc(C)c(/C=C/c4cnc5[nH]ccc5c4OC)c3)cc2C(F)(F)F)CC1"
  Study target: "PIM2 (human)"
  Measured endpoint: "kinase still bound, per cent of control"
  Data value: 100
- Compound: "COc1cc2c(Nc3ccc(NC(=O)c4ccccc4)cc3)ncnc2cc1OCCCN1CCOCC1"
  Study target: "PIM2 (human)"
  Measured endpoint: "kinase still bound, per cent of control"
  Data value: 100
- Compound: "CCN(CCO)CCCOc1ccc2c(Nc3cc(CC(=O)Nc4cccc(F)c4)[nH]n3)ncnc2c1"
  Study target: "PIM2 (human)"
  Measured endpoint: "kinase still bound, per cent of control"
  Data value: 100
- Compound: "CC1=C(C(=O)Nc2cc3cn[nH]c3cc2F)C(c2ccc(C(F)(F)F)cc2)CC(=O)N1 (stereo not drawn)"
  Study target: "PIM2 (human)"
  Measured endpoint: "kinase still bound, per cent of control"
  Data value: 100
- Compound: "CC(=O)c1c(C)c2cnc(Nc3ccc(N4CCNCC4)cn3)nc2n(C2CCCC2)c1=O"
  Study target: "PIM2 (human)"
  Measured endpoint: "kinase still bound, per cent of control"
  Data value: 52
- Compound: "O=c1[nH]c2ccccc2n1C1CCN(Cc2ccc(-c3nc4cc5[nH]cnc5cc4nc3-c3ccccc3)cc2)CC1"
  Study target: "PIM2 (human)"
  Measured endpoint: "kinase still bound, per cent of control"
  Data value: 91
- Compound: "N#C/C(=C1/Nc2ccccc2S1)c1ccnc(NCCc2cccnc2)n1"
  Study target: "PIM2 (human)"
  Measured endpoint: "kinase still bound, per cent of control"
  Data value: 20
- Compound: "Cc1cn(-c2cc(C(=O)Nc3ccc(C)c(NC(=O)c4ccno4)c3)cc(C(F)(F)F)c2)cn1"
  Study target: "PIM2 (human)"
  Measured endpoint: "kinase still bound, per cent of control"
  Data value: 100
- Compound: "C=CC(=O)Nc1ccc(C(=O)c2sc(Nc3ccc(N4CCN(C)CC4)cc3OC)nc2N)cc1"
  Study target: "PIM2 (human)"
  Measured endpoint: "kinase still bound, per cent of control"
  Data value: 100
- Compound: "COc1cc(C)c(Sc2cnc(NC(=O)c3ccc(CNC(C)C(C)C)cc3)s2)cc1C(=O)N1CCN(C(C)=O)CC1 (stereo not drawn)"
  Study target: "PIM2 (human)"
  Measured endpoint: "kinase still bound, per cent of control"
  Data value: 100
- Compound: "COc1cc2ncnc(Nc3cccc(Cl)c3)c2cc1OC"
  Study target: "PIM2 (human)"
  Measured endpoint: "kinase still bound, per cent of control"
  Data value: 74
- Compound: "CCOc1cc(N2CCC(O)CC2)ccc1Nc1ncc2c(n1)N(C)c1ccccc1C(=O)N2C"
  Study target: "PIM2 (human)"
  Measured endpoint: "kinase still bound, per cent of control"
  Data value: 100
- Compound: "N#Cc1cc(-c2ccnc(Nc3ccc(-n4cnc(-c5cccnc5)n4)cc3)n2)cc(N2CCOCC2)c1"
  Study target: "PIM2 (human)"
  Measured endpoint: "kinase still bound, per cent of control"
  Data value: 100
- Compound: "CCc1nc(-c2cccc(C)c2)c(-c2ccnc(NC(=O)c3ccccc3)c2)s1"
  Study target: "PIM2 (human)"
  Measured endpoint: "kinase still bound, per cent of control"
  Data value: 82
- Compound: "CNC(=O)Nc1ccc(-c2nc(N3CC4CCC(C3)O4)c3cnn(C4CCC5(CC4)OCCO5)c3n2)cc1"
  Study target: "PIM2 (human)"
  Measured endpoint: "kinase still bound, per cent of control"
  Data value: 74
- Compound: "COc1cc(N2CCC(C(N)=O)CC2)ccc1Nc1nc(N)c(Cl)c(Nc2ccccc2S(=O)(=O)C(C)C)n1"
  Study target: "PIM2 (human)"
  Measured endpoint: "kinase still bound, per cent of control"
  Data value: 100
